Examples of compounds with documented EC50 follow.
test system: IRF3; assay: STING THP1 reporter assay, IRF pathway (Lucia luciferase); assay type: cell-based; settings: THP1-Dual cells, 10% human plasma, 20 hours, 100% activation = 100 μM cGAMP, luciferase readout; read-out: THP1 Reporter Assays EC50 (μM) IRF3

Nc1ncnc2c1ncn2[C@@H]1O[C@@H]2COP(O)(=S)O[C@@H]3[C@H](O)[C@@H](COP(O)(=S)O[C@H]2[C@H]1F)O[C@H]3C#Cc1cccnc1 (single isomer, unassigned) [Example 3-3] :: 6 µM
Nc1ncnc2c1ncn2[C@@H]1O[C@@H]2COP(O)(=S)O[C@@H]3[C@H](O)[C@@H](COP(O)(=S)O[C@H]2[C@H]1F)O[C@H]3C#Cc1cccnc1 (single isomer, unassigned) [Example 3-4] :: > 100 µM

Problem: State, in one line, measured EC50 of Nc1ncnc2c1ncn2[C@@H]1O[C@@H]2COP(O)(=S)O[C@@H]3[C@H](O)[C@@H](COP(O)(=S)O[C@H]2[C@H]1F)O[C@H]3C#Cc1cccnc1 (single isomer, unassigned) [Example 3-2]
Solution: > 100 µM

====

tested on: IRF3; experiment: STING THP1 reporter assay, IRF pathway (Lucia luciferase); type: cell-based; conditions: THP1-Dual cells, 10% human plasma, 20 hours, 100% activation = 100 μM cGAMP, luciferase readout; read-out: THP1 Reporter Assays EC50 (μM) IRF3
Measurement Type: EC50

Some solved entries appear below for comparison.
Nc1ncnc2c1ncn2[C@@H]1O[C@@H]2COP(O)(=S)O[C@@H]3[C@H](O)[C@@H](COP(O)(=S)O[C@H]2[C@H]1F)O[C@H]3C#Cc1cccnc1 (single isomer, unassigned) [Example 3-1] :: > 100 µM
C#C[C@@H]1O[C@@H]2COP(=O)(S)O[C@H]3[C@@H](F)[C@H](n4cnc5c(N)ncnc54)O[C@@H]3COP(=O)(S)O[C@@H]1[C@@H]2O (single isomer, unassigned) [Example 1-2] :: 24 µM
Nc1ncnc2c1ncn2[C@@H]1O[C@@H]2COP(O)(=S)O[C@@H]3[C@H](O)[C@@H](COP(O)(=S)O[C@H]2[C@H]1F)O[C@H]3C#Cc1ccccc1 (single isomer, unassigned) [Example 2-4] :: > 100 µM
Nc1ncnc2c1ncn2[C@@H]1O[C@@H]2COP(O)(=S)O[C@@H]3[C@H](O)[C@@H](COP(O)(=S)O[C@H]2[C@H]1F)O[C@H]3C#Cc1ccccc1 (single isomer, unassigned) [Example 2-2] :: > 100 µM

Would you kindly look at the next entry?
Problem: Query EC50 for Nc1ncnc2c1ncn2[C@@H]1O[C@@H]2COP(O)(=S)O[C@@H]3[C@H](O)[C@@H](COP(O)(=S)O[C@H]2[C@H]1F)O[C@H]3C#Cc1ccccc1 (single isomer, unassigned) [Example 2-1]
Solution: > 100 µM

====

target: STING AQ: His-TVMV-S-hSTING(155-341)-G230A-R293Q (Homo sapiens, UniProt Q86WV6, G230A/H232R/R293Q); construct: His-TVMV-S-hSTING(155-341)-G230A-R293Q; experiment: STING HTRF binding assay, STING AQ; settings: 20 nM His-tagged STING cytoplasmic domain, 40 nM fluorescein-labeled cGAMP analog probe, one hour; read-out: HTRF Binding Assays IC50 (μM) STING AQ
Sequence (Q86WV6 with tags, fused parts or gaps G230A/H232R/R293Q): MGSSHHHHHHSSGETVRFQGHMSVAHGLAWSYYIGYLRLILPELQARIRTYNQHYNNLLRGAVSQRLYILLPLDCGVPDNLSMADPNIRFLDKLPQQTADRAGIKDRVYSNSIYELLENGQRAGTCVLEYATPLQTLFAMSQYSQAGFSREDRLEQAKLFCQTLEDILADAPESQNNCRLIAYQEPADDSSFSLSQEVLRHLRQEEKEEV
Measurement Type: log10 of IC50 (log10 of the value in µM)
Base-10 log of IC50, unit µM.

Nc1ncnc2c1ncn2[C@@H]1O[C@@H]2COP(O)(=S)O[C@@H]3[C@H](O)[C@@H](COP(O)(=S)O[C@H]2[C@H]1F)O[C@H]3C#Cc1cccnc1 (single isomer, unassigned) [Example 3-4] :: 0.15

Problem: Retrieve log10 of IC50 measured for Nc1ncnc2c1ncn2[C@@H]1O[C@@H]2COP(O)(=S)O[C@@H]3[C@H](O)[C@@H](COP(O)(=S)O[C@H]2[C@H]1F)O[C@H]3C#Cc1cccnc1 (single isomer, unassigned) [Example 3-2] and print it.
Solution: -0.70

Problem: Recall and state the measured log10 of IC50 for Nc1ncnc2c1ncn2[C@@H]1O[C@@H]2COP(O)(=S)O[C@@H]3[C@H](O)[C@@H](COP(O)(=S)O[C@H]2[C@H]1F)O[C@H]3C#Cc1cccnc1 (single isomer, unassigned) [Example 3-3] .
Solution: -1.40

Problem: Annotate the molecule C#C[C@@H]1O[C@@H]2COP(=O)(S)O[C@H]3[C@@H](F)[C@H](n4cnc5c(N)ncnc54)O[C@@H]3COP(=O)(S)O[C@@H]1[C@@H]2O (single isomer, unassigned) [Example 1-1] with its measured log10 of IC50.
Solution: -1.22

Problem: Tell me its log10 of IC50 given Nc1ncnc2c1ncn2[C@@H]1O[C@@H]2COP(O)(=S)O[C@@H]3[C@H](O)[C@@H](COP(O)(=S)O[C@H]2[C@H]1F)O[C@H]3C#Cc1ccccc1 (single isomer, unassigned) [Example 2-2] as the entry.
Solution: -0.30

Problem: Fill in log10 of IC50 for record Nc1ncnc2c1ncn2[C@@H]1O[C@@H]2COP(O)(=S)O[C@@H]3[C@H](O)[C@@H](COP(O)(=S)O[C@H]2[C@H]1F)O[C@H]3C#Cc1ccccc1 (single isomer, unassigned) [Example 2-1]
Solution: 1.29

Problem: Let me know recorded log10 of IC50 for Nc1ncnc2c1ncn2[C@@H]1O[C@@H]2COP(O)(=S)O[C@@H]3[C@H](O)[C@@H](COP(O)(=S)O[C@H]2[C@H]1F)O[C@H]3C#Cc1cccnc1 (single isomer, unassigned) [Example 3-1] , thanks.
Solution: 0.11

Problem: State its log10 of IC50: C#C[C@@H]1O[C@@H]2COP(=O)(S)O[C@H]3[C@@H](F)[C@H](n4cnc5c(N)ncnc54)O[C@@H]3COP(=O)(S)O[C@@H]1[C@@H]2O (single isomer, unassigned) [Example 1-2]
Solution: -1.52
